Tested on: T-47D Tam1
Experiment: viability inhibition at highest dose (% inhibition); higher = more growth inhibition
Details: 4-OH-tamoxifen in medium 1 µM; 72 h
value kind: viability inhibition at highest dose
// no unit string in output, number only

For reference, reported viability inhibition at highest dose for Cc1c2oc3c(C)ccc(C(=O)N[C@@H]4C(=O)N[C@H](C(C)C)C(=O)N5CCC[C@H]5C(=O)N(C)CC(=O)N(C)[C@@H](C(C)C)C(=O)O[C@@H]4C)c3nc-2c(C(=O)N[C@@H]2C(=O)N[C@H](C(C)C)C(=O)N3CCC[C@H]3C(=O)N(C)CC(=O)N(C)[C@@H](C(C)C)C(=O)O[C@@H]2C)c(N)c1=O [Dactinomycin] (drug 1000 nM) stands at 63.4

For reference, reported viability inhibition at highest dose for COC(=O)C[C@](O)(CCCC(C)(C)O)C(=O)O[C@@H]1C(OC)=C[C@]23CCCN2CCc2cc4c(cc2[C@H]13)OCO4 [Omacetaxine (Homoharringtonine)] (drug 10000 nM) stands at 74.5

For reference, reported viability inhibition at highest dose for C[C@H]1C[C@@H]2[C@H]([C@@H](O)C[C@@]3(C)[C@H]2CC[C@]3(O)C(=O)CO)[C@@]2(C)C=CC(=O)C=C12 [Methylprednisolone] (drug 10000 nM) stands at -1.09

For reference, reported viability inhibition at highest dose for Nc1ccccc1NC(=O)c1ccc(CNc2nccc(-c3cccnc3)n2)cc1 [Mocetotinostat (MGCD0103)] (drug 10000 nM) stands at 52.9

For reference, reported viability inhibition at highest dose for O=C(O)C(=O)O.[NH-][C@@H]1CCCC[C@H]1[NH-].[Pt+2] [Oxaliplatin] (drug 10000 nM) stands at 1.11

For reference, reported viability inhibition at highest dose for COC1=C2C[C@@H](C)C[C@H](OC)[C@H](O)[C@@H](C)/C=C(\C)[C@H](OC(N)=O)[C@@H](OC)/C=C\C=C(/C)C(=O)NC(=CC1=O)C2=O [Geldanamycin] (drug 10000 nM) stands at 82.4

For reference, reported viability inhibition at highest dose for CCCCCCCCc1ccc(CCC(N)(CO)CO)cc1 [Fingolimod] (drug 10000 nM) stands at 62.4

For reference, reported viability inhibition at highest dose for COc1cc(Nc2ncc(F)c(Nc3ccc4c(n3)NC(=O)C(C)(C)O4)n2)cc(OC)c1OC [Tamatinib (R406)] (drug 10000 nM) stands at 14.3

For reference, reported viability inhibition at highest dose for C=C1C[C@@H]2[C@H](CC[C@]3(C)C(=O)CC[C@@H]23)[C@@]2(C)C=CC(=O)C=C12 [Exemestane] (drug 10000 nM) stands at 2.32

For reference, reported viability inhibition at highest dose for CCC1=C[C@@H]2CN(C1)Cc1c([nH]c3ccccc13)[C@@](C(=O)OC)(c1cc3c(cc1OC)N(C)[C@H]1[C@@](O)(C(=O)OC)[C@H](OC(C)=O)[C@]4(CC)C=CCN5CC[C@]31[C@@H]54)C2 [Vinorelbine (tartrate)] (drug 10000 nM) stands at 59.6

For reference, reported viability inhibition at highest dose for COCC1(CO)C(=O)C2CCN1CC2 (centres undefined) [Prima-1 Met] (drug 10000 nM) stands at 1.75

For reference, reported viability inhibition at highest dose for CC1(C)CCC(c2ccc(Cl)cc2)=C(CN2CCN(c3ccc(C(=O)NS(=O)(=O)c4ccc(N[C@H](CCN5CCOCC5)CSc5ccccc5)c(S(=O)(=O)C(F)(F)F)c4)cc3)CC2)C1 [Navitoclax (ABT-263)] (drug 10000 nM) stands at 38.4

For reference, reported viability inhibition at highest dose for N#Cc1ccc(C(c2ccc(C#N)cc2)n2cncn2)cc1 [Letrozole] (drug 10000 nM) stands at -0.0184

For reference, reported viability inhibition at highest dose for Cc1cnc(NC(=O)Nc2cc(Br)c(C)cc2OC[C@@H]2CNCCO2)cn1 (drug 1000 nM) stands at -0.37

For reference, reported viability inhibition at highest dose for CO[C@H]1/C=C\C=C(/C)C(=O)NC2=CC(=O)C(NCCN(C)C)=C(C[C@@H](C)C[C@H](OC)[C@H](O)[C@@H](C)/C=C(\C)[C@@H]1OC(N)=O)C2=O [Alvespimycin (17-DMAG)] (drug 1000 nM) stands at 35

For reference, reported viability inhibition at highest dose for Cc1cc(C(C)Nc2ccccc2)c2nc(N3CCOCC3)cc(=O)n2c1 (centres undefined) [TGX-221] (drug 10000 nM) stands at 12.4

For reference, reported viability inhibition at highest dose for CNC(=O)c1ccc(N2C(=S)N(c3ccc(C#N)c(C(F)(F)F)c3)C(=O)C23CCC3)cc1F [RD162] (drug 10000 nM) stands at 3.92

For reference, reported viability inhibition at highest dose for O=C(O)C1(C(=O)O)CCC1.[NH2-].[NH2-].[Pt+2] [Carboplatin] (drug 10000 nM) stands at -4.98

For reference, reported viability inhibition at highest dose for C#Cc1cccc(Nc2ncnc3cc(OCCOC)c(OCCOC)cc23)c1 [Erlotinib] (drug 10000 nM) stands at 39.8

For reference, reported viability inhibition at highest dose for CC/C(=C(\c1ccc(O)cc1)c1ccc(OCCN(C)C)cc1)c1ccccc1 [4-hydroxytamoxifen] (drug 10000 nM) stands at 38.4

For reference, reported viability inhibition at highest dose for Cn1c(Nc2ccc(C(F)(F)F)cc2)nc2cc(Oc3ccnc(-c4ncc(C(F)(F)F)[nH]4)c3)ccc21 [RAF265] (drug 1000 nM) stands at 22.5

For reference, reported viability inhibition at highest dose for CC(=O)OC[C@H]1O[C@@H]([S-])[C@H](OC(C)=O)[C@@H](OC(C)=O)[C@@H]1OC(C)=O.CCP(CC)CC.[Au+] [Auranofin] (drug 2500 nM) stands at 54.3

For reference, reported viability inhibition at highest dose for C[C@@]1(C(=O)Nc2ccc(F)nc2)CCCN1c1nc(Nc2cc(C3CC3)n[nH]2)c2cccn2n1 (drug 10000 nM) stands at 46.5

For reference, reported viability inhibition at highest dose for CC[C@@H]1C(=O)OC[C@@H]1Cc1cncn1C [Pilocarpine] (drug 40000 nM) stands at -0.157

Values from the supplement of paper PMC4932681
